# subjectOfTest: SYK kinase (Homo sapiens, UniProt P43405)
metricName: Ki

COc1ccc2nc(Nc3cc(OC)c(OC)c(OC)c3)c3n[nH]cc3c2c1 [Example #67] | < 10 nM
COc1ccc2nc(Nc3cc(C)c4[nH]ncc4c3)c3n[nH]cc3c2c1 [Example #10] | 10 to 100 nM
COc1ccc2nc(Nc3cccc(S(F)(F)(F)(F)F)c3)c3n[nH]cc3c2c1 [Example #309] | 100 to 1000 nM
COc1ccc2c(c1)nc(Nc1ccc3[nH]cnc3c1)c1n[nH]cc12 [Example #263] | < 10 nM
c1ccc2c(c1)nc(Nc1ccc3cn[nH]c3c1)c1n[nH]cc12 [Example #6] | 10 to 100 nM

The record that follows has no Ki shown yet.
## Task Field request: Ki | item: COc1ccc2nc(Nc3ccc(N4CCOCC4)c(OC)c3)c3n[nH]cc3c2c1 [Example #319]
## Result 10 to 100 nM

----------
// IC50 lookup, one value per entry
# subjectOfTest: LRRK2 (Homo sapiens, UniProt Q5S007)
# Sequence (Q5S007 970-2527 limits assumed): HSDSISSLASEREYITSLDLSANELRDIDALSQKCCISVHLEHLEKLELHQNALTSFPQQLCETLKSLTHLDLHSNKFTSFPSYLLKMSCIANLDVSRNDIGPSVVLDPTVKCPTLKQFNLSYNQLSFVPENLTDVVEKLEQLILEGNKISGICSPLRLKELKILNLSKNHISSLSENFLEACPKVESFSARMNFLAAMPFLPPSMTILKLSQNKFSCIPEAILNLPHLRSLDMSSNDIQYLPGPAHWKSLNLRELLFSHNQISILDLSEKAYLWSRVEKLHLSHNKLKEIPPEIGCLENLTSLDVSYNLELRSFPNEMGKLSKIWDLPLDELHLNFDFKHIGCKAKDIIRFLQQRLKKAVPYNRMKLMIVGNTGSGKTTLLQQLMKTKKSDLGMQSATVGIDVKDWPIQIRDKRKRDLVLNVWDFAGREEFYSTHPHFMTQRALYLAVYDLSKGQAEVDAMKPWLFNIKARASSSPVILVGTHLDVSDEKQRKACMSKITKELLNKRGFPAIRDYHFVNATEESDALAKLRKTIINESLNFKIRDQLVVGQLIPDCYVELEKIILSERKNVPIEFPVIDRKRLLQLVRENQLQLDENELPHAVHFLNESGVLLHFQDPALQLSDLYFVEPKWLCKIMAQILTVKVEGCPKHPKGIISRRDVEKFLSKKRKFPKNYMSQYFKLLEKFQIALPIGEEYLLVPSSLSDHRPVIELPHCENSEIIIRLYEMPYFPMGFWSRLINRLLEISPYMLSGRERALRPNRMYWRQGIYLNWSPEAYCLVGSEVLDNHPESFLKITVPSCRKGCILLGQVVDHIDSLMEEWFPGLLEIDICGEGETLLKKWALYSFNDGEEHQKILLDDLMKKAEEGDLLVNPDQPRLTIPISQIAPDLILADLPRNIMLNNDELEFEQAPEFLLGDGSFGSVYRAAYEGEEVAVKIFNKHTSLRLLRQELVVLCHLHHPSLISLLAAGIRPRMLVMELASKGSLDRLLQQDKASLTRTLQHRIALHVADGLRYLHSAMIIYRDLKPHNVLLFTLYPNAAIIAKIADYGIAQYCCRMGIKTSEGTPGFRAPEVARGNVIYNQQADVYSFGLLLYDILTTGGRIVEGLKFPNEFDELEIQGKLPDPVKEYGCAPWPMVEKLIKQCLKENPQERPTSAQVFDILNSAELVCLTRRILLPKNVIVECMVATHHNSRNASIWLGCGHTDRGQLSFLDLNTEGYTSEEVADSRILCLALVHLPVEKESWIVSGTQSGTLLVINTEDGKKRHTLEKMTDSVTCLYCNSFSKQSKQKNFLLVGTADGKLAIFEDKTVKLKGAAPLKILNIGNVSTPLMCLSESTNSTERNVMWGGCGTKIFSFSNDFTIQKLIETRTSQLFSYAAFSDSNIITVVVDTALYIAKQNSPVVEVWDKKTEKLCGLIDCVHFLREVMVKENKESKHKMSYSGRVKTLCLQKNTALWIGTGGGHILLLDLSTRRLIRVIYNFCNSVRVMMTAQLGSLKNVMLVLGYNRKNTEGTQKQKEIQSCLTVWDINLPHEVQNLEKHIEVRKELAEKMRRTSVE
# experimentalProtocol: LRRK2 assay (LanthaScreen Eu Kinase Binding Assay)
# experimentalConditions: 5 nM LRRK2, 10 nM tracer 236, RT 1 h; read-out: LRRK2 Activites: IC50

Field: example entries. Status: answers known.
O=C(c1ccc(Nc2nc3ccc(I)cc3c3cn[nH]c23)cc1)N1CCCC1 [Example #356] | 100 to 1000 nM
COc1ccc(Nc2nc3ccc(C#N)cc3c3c[nH]nc23)cc1OC [Example #216] | 100 to 1000 nM
c1cnc2c(c1)nc(Nc1ccc3[nH]ncc3c1)c1n[nH]cc12 [Example #56] | 10 to 100 nM

## Task Field request: IC50 | item: COc1ccc2nc(Nc3ccc(C(=O)O)cc3)c3n[nH]cc3c2c1 [Example #57]
## Result 100 to 1000 nM

## Task Field request: IC50 | item: COc1ccc2c(c1)nc(Nc1ccc3[nH]ncc3c1)c1n[nH]cc12 [Example #256]
## Result 100 to 1000 nM

## Task Field request: IC50 | item: COc1cccc2nc(Nc3cc(C4CC4)[nH]n3)c3n[nH]cc3c12 [Example #199]
## Result 10 to 100 nM

## Task Field request: IC50 | item: COc1cccc2nc(Nc3ccc(N4CCOCC4)cc3)c3n[nH]cc3c12 [Example #202]
## Result 10 to 100 nM

## Task Field request: IC50 | item: COc1ccc2nc(Nc3ccc(N4CCSCC4)cc3)c3[nH]ncc3c2c1 [Example #293]
## Result 10 to 100 nM

## Task Field request: IC50 | item: COc1ccc2nc(Nc3ccc4c(c3)CN(C)C4)c3n[nH]cc3c2c1 [Example #294]
## Result 100 to 1000 nM

----------
# subjectOfTest: LRRK2 (Homo sapiens, UniProt Q5S007)
# experimentalProtocol: LRRK2 assay (LanthaScreen Eu Kinase Binding Assay)
# experimentalConditions: 5 nM LRRK2, 10 nM tracer 236, RT 1 h; read-out: LRRK2 Activites: IC50
pIC50: −log10 of the molar value.
metricName: pIC50

Field: example entries. Status: answers known.
COc1ccc2nc(Nc3ccc(OC)c(O)c3)c3n[nH]cc3c2c1 [Example #118] | 7.00 to 8.00
COc1ccc2nc(Nc3ccc4[nH]ncc4c3)c3n[nH]cc3c2c1 [Example #38] | 6.00 to 7.00
COc1ccc2nc(Nc3ccc(OC)c(NC(C)=O)c3)c3n[nH]cc3c2c1 [Example #142] | 6.00 to 7.00
COc1ccc2c(c1)nc(Nc1ccc3[nH]c(C)nc3c1)c1n[nH]cc12 [Example #264] | 6.00 to 7.00

## Task Field request: pIC50 | item: COc1ccc2c(c1)nc(Nc1ccc3cn[nH]c3c1)c1n[nH]cc12 [Example #172]
## Result 6.00 to 7.00

----------
# subjectOfTest: LRRK2 (Homo sapiens)
# experimentalProtocol: LRRK2 assay (LanthaScreen Eu Kinase Binding Assay)
# experimentalConditions: 5 nM LRRK2, 10 nM tracer 236, RT 1 h; read-out: LRRK2 Activites: IC50
metricName: IC50

Field: example entries. Status: answers known.
COc1ccc2nc(Nc3ccc4cc(C(=O)O)ccc4c3)c3n[nH]cc3c2c1 [Example #286] | < 10 nM
COc1ccc2nc(Nc3ccc4[nH]c(=O)[nH]c4c3)c3n[nH]cc3c2c1 [Example #71] | 100 to 1000 nM
O=C1COc2ccc(Nc3nc4ccc(F)cc4c4cn[nH]c34)cc2N1 [Example #324] | 100 to 1000 nM
COc1ccc2nc(Nc3ccc(OC4CCN(C)CC4)nc3)c3n[nH]cc3c2c1 [Example #255] | 100 to 1000 nM
COc1cccc2nc(Nc3ccc(CN(C)C)cc3)c3[nH]ncc3c12 [Example #353] | 10 to 100 nM

## Task Field request: IC50 | item: COc1cc2nc(Nc3ccc(N(C)C)cc3)c3n[nH]cc3c2cc1OC [Example #135]
## Result 100 to 1000 nM

## Task Field request: IC50 | item: COc1ccc2nc(Nc3cccc(O)c3)c3[nH]ncc3c2c1 [Example #113]
## Result 100 to 1000 nM

## Task Field request: IC50 | item: COc1cccc2nc(Nc3ccc4c(c3)NCCO4)c3n[nH]cc3c12 [Example #198]
## Result 10 to 100 nM

## Task Field request: IC50 | item: COc1ccc2nc(Nc3ccc4c(c3)NCCO4)c3[nH]ncc3c2c1 [Example #109]
## Result 10 to 100 nM

## Task Field request: IC50 | item: COc1cc2nc(Nc3ccc4cn[nH]c4c3)c3n[nH]cc3c2cc1OC [Example #136]
## Result 100 to 1000 nM

## Task Field request: IC50 | item: COc1ccc2nc(Nc3cc(C(C)(C)C)[nH]n3)c3[nH]ncc3c2c1 [Example #95]
## Result 10 to 100 nM

## Task Field request: IC50 | item: COc1ccc2nc(Nc3cccc(C(C)=O)c3)c3n[nH]cc3c2c1 [Example #127]
## Result 100 to 1000 nM

----------
# subjectOfTest: LRRK2 (Homo sapiens)
# experimentalProtocol: LRRK2 assay (LanthaScreen Eu Kinase Binding Assay)
# experimentalConditions: 5 nM LRRK2, 10 nM tracer 236, RT 1 h; read-out: LRRK2 Activites: IC50
// IC50 lookup, one value per entry

COc1ccc2nc(Nc3ccc4c(c3)NCCC4)c3n[nH]cc3c2c1 | 100 to 1000 nM
COc1ccc2nc(Nc3ccc(OC(F)F)c(OC)c3)c3n[nH]cc3c2c1 | 100 to 1000 nM
COc1cccc2nc(Nc3ccc4cn[nH]c4c3)c3n[nH]cc3c12 | 10 to 100 nM
CCN(CC)CCNC(=O)c1ccc(Nc2nc3ccc(OC)cc3c3c[nH]nc23)cc1 | 100 to 1000 nM
COc1ccc2nc(Nc3ccc4c(c3)NC(=O)CCC4)c3n[nH]cc3c2c1 | 10 to 100 nM

The record that follows has no IC50 shown yet.
## Task Quick check: IC50 on LRRK2 (Homo sapiens), item COc1ccc2nc(Nc3ccc(C4CCN(C)CC4)cc3)c3n[nH]cc3c2c1 ?
## Result 100 to 1000 nM

----------
# subjectOfTest: MYLK (Homo sapiens)
# Sequence (Q15746 whole entry): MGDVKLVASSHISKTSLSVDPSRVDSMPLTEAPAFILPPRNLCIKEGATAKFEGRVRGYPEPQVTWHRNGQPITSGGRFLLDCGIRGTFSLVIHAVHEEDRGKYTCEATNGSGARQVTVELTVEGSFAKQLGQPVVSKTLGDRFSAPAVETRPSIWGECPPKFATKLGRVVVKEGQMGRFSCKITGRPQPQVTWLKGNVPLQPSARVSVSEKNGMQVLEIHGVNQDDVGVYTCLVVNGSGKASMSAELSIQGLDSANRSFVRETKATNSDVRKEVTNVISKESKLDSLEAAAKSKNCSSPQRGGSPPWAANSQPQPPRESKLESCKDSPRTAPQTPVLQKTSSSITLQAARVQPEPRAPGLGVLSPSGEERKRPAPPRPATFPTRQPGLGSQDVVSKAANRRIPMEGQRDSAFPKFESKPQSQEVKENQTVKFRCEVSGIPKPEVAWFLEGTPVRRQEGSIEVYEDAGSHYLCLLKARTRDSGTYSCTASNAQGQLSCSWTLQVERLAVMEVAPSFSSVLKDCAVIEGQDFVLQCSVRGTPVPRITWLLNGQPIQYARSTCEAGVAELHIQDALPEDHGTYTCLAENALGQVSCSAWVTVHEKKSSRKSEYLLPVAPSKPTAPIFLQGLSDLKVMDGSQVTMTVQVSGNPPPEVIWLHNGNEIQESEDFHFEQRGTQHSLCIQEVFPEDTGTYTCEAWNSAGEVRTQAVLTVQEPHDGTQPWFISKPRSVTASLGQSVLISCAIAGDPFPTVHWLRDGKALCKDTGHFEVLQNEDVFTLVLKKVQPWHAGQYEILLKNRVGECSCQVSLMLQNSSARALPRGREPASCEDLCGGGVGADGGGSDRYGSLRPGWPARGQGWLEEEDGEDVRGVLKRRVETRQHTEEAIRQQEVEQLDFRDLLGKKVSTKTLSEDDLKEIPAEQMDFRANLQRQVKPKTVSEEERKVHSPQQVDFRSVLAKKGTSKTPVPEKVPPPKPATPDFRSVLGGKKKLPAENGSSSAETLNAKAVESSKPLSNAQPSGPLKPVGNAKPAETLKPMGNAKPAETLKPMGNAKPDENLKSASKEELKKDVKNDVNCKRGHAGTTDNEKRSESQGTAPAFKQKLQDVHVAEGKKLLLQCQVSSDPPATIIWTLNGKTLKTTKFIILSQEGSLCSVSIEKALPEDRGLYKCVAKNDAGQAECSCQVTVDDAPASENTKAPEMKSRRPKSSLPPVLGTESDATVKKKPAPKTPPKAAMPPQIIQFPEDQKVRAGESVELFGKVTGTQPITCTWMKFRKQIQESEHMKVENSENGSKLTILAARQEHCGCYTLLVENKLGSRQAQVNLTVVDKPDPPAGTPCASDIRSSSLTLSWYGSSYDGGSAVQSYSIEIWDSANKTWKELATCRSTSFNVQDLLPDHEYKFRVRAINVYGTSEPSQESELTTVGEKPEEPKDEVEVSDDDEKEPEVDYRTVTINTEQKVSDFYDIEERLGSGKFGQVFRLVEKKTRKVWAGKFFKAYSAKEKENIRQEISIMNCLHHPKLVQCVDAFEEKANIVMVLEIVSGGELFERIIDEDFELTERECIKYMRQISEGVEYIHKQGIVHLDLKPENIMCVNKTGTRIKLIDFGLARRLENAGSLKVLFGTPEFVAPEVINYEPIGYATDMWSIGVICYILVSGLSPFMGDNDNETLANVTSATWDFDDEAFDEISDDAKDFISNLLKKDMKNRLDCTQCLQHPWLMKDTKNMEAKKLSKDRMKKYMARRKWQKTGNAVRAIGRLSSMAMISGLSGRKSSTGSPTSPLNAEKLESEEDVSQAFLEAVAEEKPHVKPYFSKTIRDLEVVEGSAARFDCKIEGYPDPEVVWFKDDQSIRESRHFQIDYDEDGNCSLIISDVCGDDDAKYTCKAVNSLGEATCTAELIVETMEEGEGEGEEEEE
# experimentalProtocol: MYLK assay (LanthaScreen Eu Kinase Binding Assay)
// IC50 lookup, one value per entry

COc1ccc2nc(Nc3ccc(C(=O)N4CCC(=O)CC4)cc3)c3n[nH]cc3c2c1 [Example #305] | < 5 µM

The record that follows has no IC50 shown yet.
## Task Field request: IC50 | item: COc1ccc2nc(Nc3ccc(C(=O)N4CCC5(CC4)OCCO5)cc3)c3n[nH]cc3c2c1 [Example #306]
## Result < 5 µM

----------
# subjectOfTest: SYK kinase (Homo sapiens)
metricName: Ki

Field: example entries. Status: answers known.
COc1cccc2c1nc(Nc1ccc(N3CCN(C)CC3)cc1)c1n[nH]cc12 | 10 to 100 nM
COc1ccc2nc(Nc3cccc(OC)c3OC)c3n[nH]cc3c2c1 | 100 to 1000 nM
CN1CCN(c2ccc(Nc3nc4ccc(Br)cc4c4c[nH]nc34)cc2)CC1 | < 10 nM
COc1ccc2c(c1)nc(Nc1ccc3c(c1)NC(=O)CCC3)c1n[nH]cc12 | < 10 nM
COc1ccc2nc(Nc3cccc(S(=O)(=O)NC4CC4)c3)c3n[nH]cc3c2c1 | 10 to 100 nM
COc1cc2nc(Nc3ccc4c(c3)NCCO4)c3n[nH]cc3c2cc1OC | 10 to 100 nM

## Task Field request: Ki | item: CN1CCN(c2ccc(Nc3nc4cc(F)ccc4c4cn[nH]c34)cc2)CC1
## Result 10 to 100 nM

## Task Field request: Ki | item: COc1ccc2nc(Nc3ccc4cc(C(=O)O)ccc4c3)c3n[nH]cc3c2c1
## Result 10 to 100 nM

## Task Field request: Ki | item: Cc1[nH]nc2c(Nc3ccc(N4CCN(C)CC4)cc3)nc3ccccc3c12
## Result 10 to 100 nM

## Task Field request: Ki | item: COCCOc1ccc(Nc2nc3ccc(OC)cc3c3cn[nH]c23)cc1
## Result 10 to 100 nM
